Cited source for all entries: the supplement of paper PMC6555819

tested on: RARg:RXRa (NR concentration 270 nM, RXRa partner concentration 90 nM); assay: PBM binding z-score (relative to random genomic background probes); higher = stronger binding; sequences stand for … in GC…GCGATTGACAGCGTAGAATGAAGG
Observable: PBM binding z-score
// keep it numeric: no unit symbol after the value

Sequence Input: GGAACGAGGGCACAGTTGATAGCATCTGTCGACG
PBM binding z-score: 1.28
--
Sequence Input: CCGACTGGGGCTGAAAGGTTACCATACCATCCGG
PBM binding z-score: 1.33
--
Sequence Input: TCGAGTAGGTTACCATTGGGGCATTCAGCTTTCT
PBM binding z-score: 0.565
--
Sequence Input: CGTCAAAGTTCAAGGTATCGTAACAGAAAGCAGC
PBM binding z-score: 4.96
--
Sequence Input: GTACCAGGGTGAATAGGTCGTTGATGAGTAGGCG
PBM binding z-score: 2.21

`GCTGCTAGGTCAACTGATTGTCAGCTAAAGCTCG` has a reported PBM binding z-score of 4.28

The recorded PBM binding z-score for entry `GCGGCTGGGGCAAAGCAGGTTACCATAAGGTTGG` equals 0.368

Measured PBM binding z-score of `AGTCAAAGTTCAGGTCGAGGTAACGTAAAGCACG` : 4.95

So, `CCTATTATTTGACCATAAGGGCAACCGAAGCTCG` ? Its PBM binding z-score was 1.05

Measured PBM binding z-score, `CTCGAAAGGTCGGTTAAGGTGAGTATACGGATAA` : 2.94

Kindly note the recorded PBM binding z-score for `AGTCTAAGTTCACTAGGTAACGTAAGATTCAGCT` , which is 3.35

Please fill in: PBM binding z-score reported for `TAGCCTAGGTCATTCAGGTGCCAGTATAGAAAGC` = 4.44

The reported PBM binding z-score of the sequence `ATTGAAAGGTCGTGAGGTGAGTATACAGAAAGGC` was 4.76

# PBM binding z-score of `CGTCCAAGGTCAAGGTCATTGAAAGAGACTCGAA` = 7.02

The measured PBM binding z-score associated with `CATACAGGGGCAGCTAGGCCAGAGTAGGGACGGC` reads 0.498

According to the records, this sequence `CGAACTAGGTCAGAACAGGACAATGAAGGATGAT` displays PBM binding z-score of 2.55
